- Assay: clinical
- Assay Conditions: both sexes, human, in vivo, iv, 100 mg, Tmax, arithmetic mean (SD)
- Description: This was a Phase 1, single-center, multiple-dose, open-label PK study in healthy adult male and female subjects. Subjects received three 100 mg doses of SPR206 administered q8h as a 1-h IV infusion. Three consecutive doses were sufficient to achieve steady-state based on a previous Phase 1 study in healthy subjects ([36]). […] Concentrations of SPR206 in plasma were determined by a validated liquid chromatography with tandem mass spectrometry (LC-MS/MS) assay performed at QPS, LLC. […]
Where a SMILES comes first, the peptide text is derived from it. Bridges are numbered along the chain shown (N, C = ends). [ ]: non-standard residue; d: D form. The star is where a group is joined. X1 = NC[C@@H](CC(=O)*)c1cccc(Cl)c1; Dab = NCC[C@H](N)C(=O)O; Dap = NC[C@H](N)C(=O)O
Measured Quantity: Tmax (h)
Give bare numbers, in h.

Need Tmax of CC(C)C[C@@H]1NC(=O)[C@@H](Cc2ccccc2)NC(=O)[C@H](CCN)NC(=O)[C@@H](NC(=O)[C@H](CN)NC(=O)[C@@H](NC(=O)C[C@H](CN)c2cccc(Cl)c2)[C@@H](C)O)CCNC(=O)[C@H]([C@@H](C)O)NC(=O)[C@H](CCN)NC(=O)[C@H](CCN)NC1=O [SPR206] (X1-T[Dap][Dab][Dab][dF]L[Dab][Dab]T; lactam 3-C (inferred)) , thanks.
2.1
